System: BT-549 breast
Assay: NCI-60 one-dose screen, 48 h (100 = growth as untreated, 0 = no growth, -100 = all killed)
Details: 10 µM unless noted
The panel holds about 83,000 compounds, 20% with a hit somewhere; the sample as a whole holds those more often.
Assay Readout: growth (%)
Give bare numbers, in %.

[
  {
    "Smiles Str": "COc1ccc(Cl)cc1Nc1nc(C(F)(F)F)ccc1C(=O)N/N=C/c1c(Cl)cccc1Cl",
    "growth, %": 48.6
  },
  {
    "Smiles Str": "Cc1ccc(-c2csc(N)n2)cc1",
    "growth, %": 93
  },
  {
    "Smiles Str": "COc1cnc2c(c1)C(=O)c1c-2n(CCCNC2=NCCS2)c(=O)c2cc(F)ccc12",
    "growth, %": 13.4
  }
]

Take each entry in turn and give its growth.
1. COc1ccc2nc(N/N=C(\C)c3ccccn3)cc(C)c2c1
2. C[C@]12CCC(=O)C=C1CC[C@H]1[C@@H]3C[C@@H](O)[C@](O)(C(=O)CO)[C@@]3(C)C[C@H](O)[C@@]12F

stdout:
-87.8
99.4

* * *

Tested on: M14 melanoma
Experiment: NCI-60 one-dose screen, 48 h (100 = growth as untreated, 0 = no growth, -100 = all killed)
Conditions: 10 µM unless noted
Compounds without any hit were thinned out: in the full panel of roughly 83,000, 20% have a hit.
Assay Readout: growth (%)
One number for each entry, in %.

Some molecules with recorded growth:
[
  {
    "Molecule": "CC1C(C)N(C(=O)CCl)c2ccccc2N1C(=O)CCl (stereo not given)",
    "Target Desc": "M14 melanoma",
    "Assay Readout": "growth",
    "Result Unit": "%",
    "Numeric Readout": -81.8
  },
  {
    "Molecule": "O=C1/C=C/[C@@H](O)[C@@H]2C[C@@H](O)C[C@H]2/C=C/CCC[C@H](CO)O1",
    "Target Desc": "M14 melanoma",
    "Assay Readout": "growth",
    "Result Unit": "%",
    "Numeric Readout": 11.6
  },
  {
    "Molecule": "CCOC(=O)Nc1cc(-c2ccc(C)c(NS(C)(=O)=O)c2)nn2c(C)nnc12",
    "Target Desc": "M14 melanoma",
    "Assay Readout": "growth",
    "Result Unit": "%",
    "Numeric Readout": 19
  },
  {
    "Molecule": "COc1cc(-c2nc3sc4c(c3c(=O)[nH]2)CCCCCC4)cc(OC)c1OC",
    "Target Desc": "M14 melanoma",
    "Assay Readout": "growth",
    "Result Unit": "%",
    "Numeric Readout": 23.1
  },
  {
    "Molecule": "COc1ccc(/C=C/C(=O)c2cccc(NS(C)(=O)=O)c2)cc1",
    "Target Desc": "M14 melanoma",
    "Assay Readout": "growth",
    "Result Unit": "%",
    "Numeric Readout": 97.3
  },
  {
    "Molecule": "C[C@H]1O[C@@H](O[C@H]2[C@@H](O)C[C@H](O[C@H]3[C@@H](O)C[C@H](O[C@H]4CC[C@]5(C)C6C[C@@H](O)[C@]7(C)[C@@H](C8=CC(=O)OC8)CC[C@]7(O)C6CC[C@@H]5C4)O[C@@H]3C)O[C@@H]2C)C[C@H](O)[C@@H]1O (stereo not given in full)",
    "Target Desc": "M14 melanoma",
    "Assay Readout": "growth",
    "Result Unit": "%",
    "Numeric Readout": -81.6
  },
  {
    "Molecule": "NC(=O)c1cc(Br)cc(Br)c1NS(=O)(=O)c1ccccc1",
    "Target Desc": "M14 melanoma",
    "Assay Readout": "growth",
    "Result Unit": "%",
    "Numeric Readout": 101
  },
  {
    "Molecule": "O=C(COc1ccc(/C=C2\\Oc3ccc4ccccc4c3C2=O)cc1)c1ccc([N+](=O)[O-])cc1",
    "Target Desc": "M14 melanoma",
    "Assay Readout": "growth",
    "Result Unit": "%",
    "Numeric Readout": 92.8
  }
]

Each molecule below has a recorded value; state its growth.
1. O=C(Oc1ccccc1)C(Br)C(Br)c1ccccc1 (stereo not given)
2. COc1ccc(CC(=O)Nc2nn3c(-c4cc(C(F)(F)F)cc(C(F)(F)F)c4)nnc3s2)cc1

stdout:
1. 102
2. 97

Answer for every listed entry: what is its growth? The entries follow.
1. Cc1nn2c(/C=C3/C(=O)Nc4cc(Cl)ccc43)c(-c3ccccc3)nc2s1
2. CCCCN1c2nc3ccccc3cc2Sc2cc3ccccc3nc21

stdout:
1. 22.2
2. 103
